Tested on: CCRF-CEM leukemia
Assay: NCI tumour cell line growth inhibition, 48 h; in the data active = GI50 below about 0.43 µM; inactive = the rest
// classify into active, inactive

Inquiry: Test call, this compound: "CNC(=O)c1c(F)cccc1Nc1nc(Nc2cc3c(cc2OC)CCN3C(=O)CN(C)C)nc2[nH]ccc12"
Reply text: inactive

Inquiry: // outcome(item) with item = "O=C(Nc1cc(Cl)cc(Cl)c1)c1cccc(NC2=C(Cl)C(=O)N(Cc3ccccc3)C2=O)c1"
Reply text: inactive

Inquiry: // outcome(item) with item = COc1ccccc1[As]=[As]c1ccccc1OC (configuration not stated)
Reply text: active

Inquiry: Called result for "COc1cc(-c2nc3ccccc3o2)cc(CN2CCCCC2)c1O"
Reply text: inactive

Inquiry: Per the records of this test, what outcome belongs to "O=C(NCCOCCOCCOCCNC(=O)c1cc2c(o1)C(=O)c1ccccc1C2=O)NC12CC3CC(CC(C3)C1)C2" ?
Reply text: inactive

Inquiry: Called result for "Nc1ncc(-c2ccc3ncnc(N4CCc5ccc(Cl)cc54)c3c2)cc1C(F)(F)F"
Reply text: inactive

Inquiry: Recorded test outcome, item "Clc1cccc(CNc2c3ccccc3nc3ccccc23)c1"
Reply text: inactive

---

Test system: U251 CNS
Test: NCI tumour cell line growth inhibition, 48 h
MEASURED_ENDPOINT: TGI (µM)
// return numeric value only (unit: µM, not printed)

The observed TGI for "N#Cc1nc(C#N)c(Sc2ccccc2)c(Sc2ccccc2)c1Sc1ccccc1" when tested with U251 CNS stands at 1.86

Form field TGI for item "CCCCCCCCCCNCCSS(=O)(=O)O" on U251 CNS: 4.12

Record "Clc1cccc(CNc2c3ccccc3nc3ccccc23)c1" has U251 CNS TGI equal to 4.56

The recorded TGI with U251 CNS for COC1C=COC2(C)Oc3c(C)c(O)c4c(O)c(c(C5SCCS5)c(O)c4c3C2=O)NC(=O)/C(C)=C\C=CC(C)C(O)C(C)C(O)C(C)C(OC(C)=O)C1C (stereo not given) was 14.5

Form field TGI for item "C[P+](c1ccccc1)(c1ccc(Cl)cc1)c1ccc(Cl)cc1" on U251 CNS: 39.3

Observed TGI on U251 CNS, entry "CN(C)Cc1ccc(NC(=O)c2cncc(C#Cc3cnc(N)c4ncccc34)c2)cc1F" , equals 3.89

Readout TGI for O=CC1C(Cl)=Nc2nc3ccccc3n2C1c1ccccc1 (stereo not given) , test system U251 CNS, was 33.7

Here "COc1ccc2c(c1)/C(=C\c1c(-c3cc(OC)ccc3OC)nc3sccn13)C(=O)N2" was tested on U251 CNS, and its TGI came to 24.5

Lab note: molecule "Cc1ccc(Cl)c(NS(=O)(=O)c2ccc(-c3cnc(C4CC4)o3)cc2)c1" tested on U251 CNS; recorded TGI was 26.5

Measured TGI for this entry "COc1ccc(OC)c(/C=C2\CCc3ccccc3C2=O)c1" on U251 CNS: 14.4

Entry "O=C(NCCOCCOCCOCCNC(=O)c1cc2c(o1)C(=O)c1ccccc1C2=O)NC12CC3CC(CC(C3)C1)C2" , tested on U251 CNS, has a reported TGI of 5

Per the reported U251 CNS data, OC1CCCC2CCC[N-]C12.OC1CCCC2CCC[N-]C12.[O]=[V][OH] (stereo not given) has TGI of 5.72

Tested on U251 CNS, the item "CCN(CC)c1ccc(-c2cc(-c3cc(OC)c(OC)c(OC)c3)nc(N3CCC(O)CC3)c2C#N)cc1" showed TGI equal to 1.8

The observed TGI for "Oc1ccc(C(O)(c2ccccc2)c2ccccc2)c2ccccc12" when tested with U251 CNS stands at 2.91

Observed TGI, U251 CNS, "COc1cc2c3c(n(CCCNCCCNCCN)c(=O)c2cc1OC)-c1cc2c(cc1C3=O)OCO2" : 44.2

Item "COc1cc(-c2nc3ccccc3o2)cc(CN2CCCCC2)c1O" was tested on U251 CNS; the reported TGI is 9.54

Value source: PubChem BioAssay (NCI)
